Target: PKC isoenzyme βII (Homo sapiens)
Construct: made in house; host or cells: baculovirus-insect cell expression system
Sequence (P05771 1-673 isoform P05771-2): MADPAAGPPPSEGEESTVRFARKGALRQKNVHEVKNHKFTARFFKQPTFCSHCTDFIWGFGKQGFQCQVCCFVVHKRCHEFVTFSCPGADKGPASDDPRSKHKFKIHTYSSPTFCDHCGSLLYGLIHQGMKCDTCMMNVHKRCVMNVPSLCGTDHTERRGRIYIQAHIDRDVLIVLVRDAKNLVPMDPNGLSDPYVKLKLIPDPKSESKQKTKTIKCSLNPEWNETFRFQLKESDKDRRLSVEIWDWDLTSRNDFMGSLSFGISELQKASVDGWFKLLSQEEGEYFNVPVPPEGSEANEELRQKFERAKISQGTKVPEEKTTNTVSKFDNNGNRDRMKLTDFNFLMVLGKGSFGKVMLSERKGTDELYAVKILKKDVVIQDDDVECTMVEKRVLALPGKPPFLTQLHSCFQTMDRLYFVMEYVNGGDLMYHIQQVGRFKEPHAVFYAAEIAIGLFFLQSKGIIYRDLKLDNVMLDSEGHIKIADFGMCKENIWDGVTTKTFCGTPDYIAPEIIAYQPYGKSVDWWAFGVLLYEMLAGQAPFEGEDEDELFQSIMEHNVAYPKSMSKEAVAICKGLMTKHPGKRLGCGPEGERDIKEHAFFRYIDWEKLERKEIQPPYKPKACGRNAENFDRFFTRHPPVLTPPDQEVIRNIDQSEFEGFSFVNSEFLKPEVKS
Test: Protein kinase C inhibition assay, PKC isoenzyme βII
Assay type: biochemical
Conditions: read-out: IC50 PKC βII
Description: A protein kinase C (PKC) assay is designed to duplicate the in vivo conditions required for protein kinase C function. Therefore, pH, salt and cofactor concentrations are similar to physiologic levels. Either lysine rich histone H1 (H1) or Myelin basic protein (Mbp) are used in the assay as the phosphorylation acceptor-protein because they are readily available and serve as good substrates for protein kinase C. Enzyme was prepared from baculovirus-insect cell expression systems. […]
pIC50: −log10 of the molar value.
Metric: pIC50

> print(dat)
                                   compound               experimental.system  quantitative.readout
1  O=C1C(Nc2ccc(S(=O)(=O)Nc3cnc4ccccc4n3)cc2)=CC(=Nc2ccc(S(=O)(=O)Nc3cnc4ccccc4n3)cc2)c2ccccc21 [Compound 6m]  PKC isoenzyme βII (Homo sapiens)                  4.64
2  Cc1cc(C)nc(NS(=O)(=O)c2cc(N=C3C=C(Nc4ccc(C)c(S(=O)(=O)Nc5cc(C)cc(C)n5)c4)C(=O)c4ccccc43)ccc2C)c1 [Compound 3ag]  PKC isoenzyme βII (Homo sapiens)                  4.77

###

Biological target: PKC isoenzyme δ (Homo sapiens, UniProt Q05655)
Construct: made in house; host or cells: baculovirus-insect cell expression system
Sequence (Q05655 whole entry): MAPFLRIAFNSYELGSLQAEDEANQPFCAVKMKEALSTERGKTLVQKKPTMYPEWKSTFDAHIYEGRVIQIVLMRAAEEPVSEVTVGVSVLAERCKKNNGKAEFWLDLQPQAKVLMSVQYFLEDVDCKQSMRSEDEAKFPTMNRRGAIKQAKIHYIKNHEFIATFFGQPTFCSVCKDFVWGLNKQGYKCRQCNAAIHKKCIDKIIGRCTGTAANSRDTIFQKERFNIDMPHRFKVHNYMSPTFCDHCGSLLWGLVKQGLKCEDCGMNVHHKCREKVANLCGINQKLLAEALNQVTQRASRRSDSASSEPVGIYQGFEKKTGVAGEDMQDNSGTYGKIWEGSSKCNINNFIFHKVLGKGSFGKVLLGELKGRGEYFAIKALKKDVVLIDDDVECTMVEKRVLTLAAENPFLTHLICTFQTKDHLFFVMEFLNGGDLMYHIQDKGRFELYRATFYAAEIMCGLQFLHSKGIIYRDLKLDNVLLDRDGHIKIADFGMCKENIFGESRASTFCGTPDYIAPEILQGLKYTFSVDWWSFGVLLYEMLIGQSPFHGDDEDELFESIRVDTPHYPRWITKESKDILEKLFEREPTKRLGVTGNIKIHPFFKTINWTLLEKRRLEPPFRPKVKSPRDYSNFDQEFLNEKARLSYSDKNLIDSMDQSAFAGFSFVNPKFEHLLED
Experiment: Protein kinase C inhibition assay, PKC isoenzyme δ
Format: biochemical
Conditions: read-out: IC50 PKC δ
pIC50: −log10 of the molar value.
Metric: pIC50

Examples with their reported pIC50 follow.
> print(dat)
                                   compound  quantitative.readout
1  COc1cc(NS(=O)(=O)c2ccc(N=C3C=C(Nc4ccc(S(=O)(=O)Nc5cc(OC)nc(OC)n5)cc4)C(=O)c4ccccc43)cc2)nc(OC)n1 [Compound 3g]                  4.40
2  Cc1noc(NS(=O)(=O)c2ccc(N=C3C=C(Nc4ccc(S(=O)(=O)Nc5onc(C)c5C)cc4)C(=O)c4ccccc43)cc2)c1C [Compound 3b]                  4.51
3  COc1ccc(NS(=O)(=O)c2ccc(N=C3C=C(Nc4ccc(S(=O)(=O)Nc5ccc(OC)nn5)cc4)C(=O)c4ccccc43)cc2)nn1 [Compound 6j]                  3.95
4  Cc1cc(C)nc(NS(=O)(=O)c2cccc(N=C3C=C(Nc4cccc(S(=O)(=O)Nc5cc(C)cc(C)n5)c4)C(=O)c4ccccc43)c2)c1                  4.07

[a] CCCCCCCCCCCCCCCCNS(=O)(=O)c1ccc(N=C2C=C(Nc3ccc(S(=O)(=O)NCCCCCCCCCCCCCCCC)cc3)C(=O)c3ccccc32)cc1 [Compound 6o]
[b] Cc1nnc(NS(=O)(=O)c2ccc(N=C3C=C(Nc4ccc(S(=O)(=O)Nc5nnc(C)s5)cc4)C(=O)c4ccccc43)cc2)s1 [Compound 6e]
Data request: Which record would sort first by descending pIC50, a or b ? Select an item and report its label.
Data returned: b

###

Target: PKC isoenzyme α (Homo sapiens)
Construct: made in house; host or cells: baculovirus-insect cell expression system
Assay: Protein kinase C inhibition assay, PKC isoenzyme α
Type: biochemical
Conditions: read-out: IC50 PKC α
pIC50: −log10 of the molar value.
Metric: pIC50

Below: 5 compounds and their reported pIC50.
> print(dat)
                                   compound  quantitative.readout
1  Cc1ccnc(NS(=O)(=O)c2ccc(N=C3C=C(Nc4ccc(S(=O)(=O)Nc5nccc(C)n5)cc4)C(=O)c4ccccc43)cc2)n1 [Compound 6f]                  4.62
2  COc1cnc(NS(=O)(=O)c2ccc(N=C3C=C(Nc4ccc(S(=O)(=O)Nc5ncc(OC)cn5)cc4)C(=O)c4ccccc43)cc2)nc1 [Compound 6h]                  3.97
3  COc1cc(NS(=O)(=O)c2ccc(N=C3C=C(Nc4ccc(S(=O)(=O)Nc5cc(OC)nc(OC)n5)cc4)C(=O)c4ccccc43)cc2)nc(OC)n1 [Compound 3g]                  4.49
4  Cc1cc(C)nc(NC(=O)c2ccc(N=C3C=C(Nc4ccc(C(=O)Nc5cc(C)cc(C)n5)cc4)C(=O)c4ccccc43)cc2)c1 [Compound 3ah]                  3.87
5  O=C1C(Nc2ccc(S(=O)(=O)Nc3cnc4ccccc4n3)cc2)=CC(=Nc2ccc(S(=O)(=O)Nc3cnc4ccccc4n3)cc2)c2ccccc21 [Compound 3m]                  5.10

[I] O=C1C(Nc2ccc(S(=O)(=O)Nc3ccccn3)cc2)=CC(=Nc2ccc(S(=O)(=O)Nc3ccccn3)cc2)c2ccccc21 [Compound 6i]
[II] COc1ccc(NS(=O)(=O)c2ccc(N=C3C=C(Nc4ccc(S(=O)(=O)Nc5ccc(OC)nn5)cc4)C(=O)c4ccccc43)cc2)nn1 [Compound 3j]
Data request: Endpoint returns the identifier whose pIC50 is numerically larger, either I or II . Return value: the label identifying the chosen record.
Data returned: I

[1] Cc1cc(C)nc(NS(=O)(=O)c2cc(N=C3C=C(Nc4ccc(C)c(S(=O)(=O)Nc5cc(C)cc(C)n5)c4)C(=O)c4ccccc43)ccc2C)c1 [Compound 6ag]
[2] O=C1C(Nc2ccc(S(=O)(=O)Nc3ccc(Cl)nn3)cc2)=CC(=Nc2ccc(S(=O)(=O)Nc3ccc(Cl)nn3)cc2)c2ccccc21 [Compound 6l]
Data request: Pick one: 1 or 2 . Which has the bigger pIC50 number? To answer, give the label that identifies your chosen option.
Data returned: 1
(1: 4.66, 2: 4.36)

[I] Cc1cc(C)nc(NS(=O)(=O)c2ccc(N=C3C=C(Nc4ccc(S(=O)(=O)Nc5nc(C)cc(C)n5)cc4)C(=O)c4ccccc43)cc2)n1 [Compound 3c]
[II] Cc1cc(C)nc(NS(=O)(=O)c2cc(N=C3C=C(Nc4ccc(C)c(S(=O)(=O)Nc5cc(C)cc(C)n5)c4)C(=O)c4ccccc43)ccc2C)c1 [Compound 3ag]
Data request: Thinking about recorded pIC50 values, which is higher, I or II ? Give the chosen item's label as your response.
Data returned: II

[A] COc1cc(NS(=O)(=O)c2ccc(N=C3C=C(Nc4ccc(S(=O)(=O)Nc5cc(OC)cc(OC)c5)cc4)C(=O)c4ccccc43)cc2)cc(OC)c1 [Compound 3af]
[B] Cc1noc(NS(=O)(=O)c2ccc(N=C3C=C(Nc4ccc(S(=O)(=O)Nc5onc(C)c5C)cc4)C(=O)c4ccccc43)cc2)c1C [Compound 6b]
Data request: API: POST /compare with A and B ; response names the item with higher pIC50. Please reply using the label of the selected record.
Data returned: B
(B: 4.46, A: 3.99)

###

Molecular target: cAMP dependent protein kinase (PKA)
Assay: cAMP Dependent Protein Kinase (PKA) Assay
Conditions: catalytic subunit of PKA
pIC50: −log10 of the molar value.
Metric: pIC50

> print(dat)
                                   molecule  metric  quantitative.readout
1  Cc1cc(C)nc(NS(=O)(=O)c2ccc(N=C3C=C(Nc4ccc(S(=O)(=O)Nc5nc(C)cc(C)n5)cc4)C(=O)c4ccccc43)cc2)n1 [Compound 6c]   pIC50                  4.32
2  O=C1C(Nc2ccc(S(=O)(=O)Nc3cnc4ccccc4n3)cc2)=CC(=Nc2ccc(S(=O)(=O)Nc3cnc4ccccc4n3)cc2)c2ccccc21 [Compound 6m]   pIC50                  3.84
3  O=C1C(Nc2ccc(S(=O)(=O)Nc3ccc(Cl)nn3)cc2)=CC(=Nc2ccc(S(=O)(=O)Nc3ccc(Cl)nn3)cc2)c2ccccc21 [Compound 6l]   pIC50                  4.05
4  Cc1ccnc(NS(=O)(=O)c2ccc(N=C3C=C(Nc4ccc(S(=O)(=O)Nc5nccc(C)n5)cc4)C(=O)c4ccccc43)cc2)n1 [Compound 3f]   pIC50                  4.32
5  Cc1nnc(NS(=O)(=O)c2ccc(N=C3C=C(Nc4ccc(S(=O)(=O)Nc5nnc(C)s5)cc4)C(=O)c4ccccc43)cc2)s1 [Compound 3e]   pIC50                  4.26

[1] Cc1nnc(NS(=O)(=O)c2ccc(N=C3C=C(Nc4ccc(S(=O)(=O)Nc5nnc(C)s5)cc4)C(=O)c4ccccc43)cc2)s1 [Compound 6e]
[2] O=C1C(Nc2ccc(S(=O)(=O)Nc3ccc(Cl)nn3)cc2)=CC(=Nc2ccc(S(=O)(=O)Nc3ccc(Cl)nn3)cc2)c2ccccc21 [Compound 3l]
Data request: Quick one: lower pIC50, 1 or 2 ? # answer = label of selected item
Data returned: 2
(2: 4.01, 1: 4.35)

Attribution: patent US5292737A
